assay: VSMC viability (MTS) in high-CaP medium; format: cell-based, human; conditions: human, primary human VSMCs, 100 µM in high-CaP medium; read-out: VSMC viability (MTS), % of medium control
readout: viability at 5 days, 100 µM (%)
Give bare numbers, in %.

# input viability at 5 days, 100 µM lookup needed for O=P(O)(O)O[C@H]1[C@H](OP(=O)(O)O)[C@@H](OP(=O)(O)O)[C@H](OP(=O)(O)O)[C@@H](OP(=O)(O)O)[C@H]1OP(=O)(O)O [IP6, myo-Inositol hexakisphosphate] , thanks.
# output 78.7

====

experiment: PK s.c. in rats with vitamin D and warfarin-induced VC; type: in vivo; conditions: Sprague-Dawley, rat, plasma, sc, 50 mg/kg, 50 mg/kg s.c., Cardiovascular calcification model
readout: half-life (h)
Numbers only, in h.

# input half-life lookup needed for COCCOCCO[C@@H]1[C@@H](OP(=O)(O)O)[C@H](OCCOCCOC)[C@@H](OP(=O)(O)O)[C@@H](OP(=O)(O)O)[C@H]1OP(=O)(O)O [(OEG2)2-IP4] , thanks.
# output 3.73

====

test: PK i.v. bolus in healthy and adenine/high-phosphate-diet (uremic) rats; format: in vivo, male Sprague-Dawley rats; details: male, Sprague-Dawley, rat, serum, iv, 10 mg/kg, 10 mg/kg i.v. bolus, Uremic
readout: half-life (h)
Give bare numbers, in h.

# input half-life lookup needed for COCCOCCO[C@@H]1[C@@H](OP(=O)(O)O)[C@H](OCCOCCOC)[C@@H](OP(=O)(O)O)[C@@H](OP(=O)(O)O)[C@H]1OP(=O)(O)O [(OEG2)2-IP4] , thanks.
# output 1.38

====

assay: PK s.c. in rats with vitamin D and warfarin-induced VC; type: in vivo; settings: Sprague-Dawley, rat, plasma, sc, 50 mg/kg, 50 mg/kg s.c., Cardiovascular calcification model
readout: Cmax

# input Cmax lookup needed for `COCCOCCO[C@@H]1[C@@H](OP(=O)(O)O)[C@H](OCCOCCOC)[C@@H](OP(=O)(O)O)[C@@H](OP(=O)(O)O)[C@H]1OP(=O)(O)O` , thanks.
# output 34 µM

====

Could you please report measured concentration upon which a T50 of 350 min is reached (c350), mean for the items listed next?
System: transformation of CPP1 to CPP2 in pooled human serum
Test: In vitro serum calcification propensity (T50) screening assay
Format: biochemical
Settings: mean of n experiments
Description: The compounds were ranked for calcification inhibition activity using a nanoparticle-based test, developed for risk stratification, which measures the propensity for calcification in patient serum. […] The time, after which 50% of CPP phase transition occurred (T50), was assessed by time-resolved spectrophotometry at 550 nm (Supplementary Fig. 1a). The screening assay was performed as described previously. […]
Numeric answer plus unit only.

Consider the following illustrative entries.
{"columns": ["compound", "observed"],
 "data": [
  ["COCCOCCOCCOCCOCCOCCOCCO[C@H]1[C@H](OP(=O)(O)O)[C@H](OCCOCCOCCOCCOCCOCCOCCOC)[C@H](OP(=O)(O)O)[C@@H](OCCOCCOCCOCCOCCOCCOCCOC)[C@@H]1OP(=O)(O)O", "9.4 µM"],
  ["COCCOCCO[C@H]1[C@H](OP(=O)(O)O)[C@H](OCCOCCOC)[C@H](OP(=O)(O)O)[C@@H](OCCOCCOC)[C@@H]1OP(=O)(O)O", "7.1 µM"]
]}

# input concentration upon which a T50 of 350 min is reached (c350), mean lookup needed for OP(O)(=S)O[C@H]1[C@H](OP(O)(O)=S)[C@@H](OP(O)(O)=S)[C@H](OP(O)(O)=S)[C@@H](OP(O)(O)=S)[C@H]1OP(O)(O)=S [IT6, myo-Inositol hexathiophosphate] , thanks.
# output 14.4 µM
